target: human V1a receptor (Homo sapiens, UniProt P37288); assay: Cellular in vitro assay for determining vasopressin receptor activity, V1a receptor cell line (photoprotein luminescence); type: cell-based; details: selectivity ratio of the cellular IC50 values
Sequence (P37288 whole entry): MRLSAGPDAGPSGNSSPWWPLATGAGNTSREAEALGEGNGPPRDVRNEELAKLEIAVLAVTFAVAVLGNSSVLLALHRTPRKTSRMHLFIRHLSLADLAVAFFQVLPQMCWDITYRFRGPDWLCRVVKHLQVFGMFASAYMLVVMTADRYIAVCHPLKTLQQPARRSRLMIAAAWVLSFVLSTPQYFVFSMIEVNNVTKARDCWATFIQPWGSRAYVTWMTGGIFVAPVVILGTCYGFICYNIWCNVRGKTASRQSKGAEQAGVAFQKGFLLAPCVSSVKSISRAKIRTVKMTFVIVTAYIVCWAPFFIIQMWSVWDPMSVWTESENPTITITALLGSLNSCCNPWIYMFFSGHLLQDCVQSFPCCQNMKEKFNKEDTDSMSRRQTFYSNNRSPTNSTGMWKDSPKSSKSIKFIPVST
measured-metric: ratio IC50 hV2/hV1a

# compound, ratio IC50 hV2/hV1a
records = [
    ("O=c1n(Cc2nc(N3CCC(F)(F)C3)n(-c3ccccc3Cl)n2)nc(-c2ccc(Cl)cc2)n1C[C@H](O)C(F)(F)F", 3.1),
    ("O=CN1CCC(Nc2nc(Cn3nc(-c4ccc(Cl)cc4)n(C[C@H](O)C(F)(F)F)c3=O)nn2-c2ccccc2Cl)C1 (mixture of isomers)", 8.0),
    ("CC(=O)NCCNc1nc(Cn2nc(-c3ccc(Cl)cc3)n(C[C@H](O)C(F)(F)F)c2=O)nn1-c1ccccc1Cl", 5.5),
    ("NCCNc1nc(Cn2nc(-c3ccc(Cl)cc3)n(C[C@H](O)C(F)(F)F)c2=O)nn1-c1ccccc1Cl", 24.4),
]

P = O=c1n(Cc2nc(NCC3CS(=O)(=O)C3)n(-c3ccccc3Cl)n2)nc(-c2ccc(Cl)cc2)n1C[C@H](O)C(F)(F)F
Q = O=c1n(Cc2nc(N3CCOCC3)n(-c3cccc(F)c3)n2)nc(-c2ccc(Cl)cc2)n1C[C@H](O)C(F)(F)F
Req: Between the two listed entries P and Q , which has its ratio IC50 hV2/hV1a at the higher number? Use the label to indicate which entry you chose.
Resp: P

---

biological target: human V2 receptor (Homo sapiens, UniProt P30518); test: Cellular in vitro assay for determining vasopressin receptor activity, V2 receptor cell line (CRE-luciferase); details: CHO cell line transfected with the human V2 receptor; agonist [Arg8]-vasopressin at EC50 concentration; read-out: IC50 hV2
Sequence (P30518 whole entry): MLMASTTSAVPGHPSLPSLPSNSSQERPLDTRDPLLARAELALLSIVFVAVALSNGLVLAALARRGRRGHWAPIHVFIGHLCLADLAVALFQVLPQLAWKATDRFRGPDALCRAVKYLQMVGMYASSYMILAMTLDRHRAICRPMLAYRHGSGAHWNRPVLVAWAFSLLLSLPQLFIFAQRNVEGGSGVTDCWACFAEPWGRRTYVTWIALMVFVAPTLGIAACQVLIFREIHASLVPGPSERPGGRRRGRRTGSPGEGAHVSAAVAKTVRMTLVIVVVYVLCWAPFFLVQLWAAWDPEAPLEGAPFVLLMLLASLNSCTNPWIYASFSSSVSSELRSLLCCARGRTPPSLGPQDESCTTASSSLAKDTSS
measured-metric: IC50 (nM)

Example compounds with recorded IC50:
# compound, numeric-value
records = [
    ("CC(C)(O)CNc1nc(Cn2nc(-c3ccc(Cl)cc3)n(C[C@H](O)C(F)(F)F)c2=O)nn1-c1ncccc1Cl", 145),
    ("NCCNc1nc(Cn2nc(-c3ccc(Cl)cc3)n(C[C@H](O)C(F)(F)F)c2=O)nn1-c1ccccc1Cl", 22),
    ("O=C1NCCC1Nc1nc(Cn2nc(-c3ccc(Cl)cc3)n(C[C@H](O)C(F)(F)F)c2=O)nn1-c1ccccc1Cl (single isomer, unassigned) [Example 17]", 1.9),
    ("NC(=O)[C@H]1CC(F)(F)CN1c1nc(Cn2nc(-c3ccc(Cl)cc3)n(C[C@H](O)C(F)(F)F)c2=O)nn1-c1ccccc1Cl", 18.2),
    ("CC(C)(N)CNc1nc(Cn2nc(-c3ccc(Cl)cc3)n(C[C@H](O)C(F)(F)F)c2=O)nn1-c1ccccn1", 3150),
    ("O=c1n(Cc2nc(N3CCS(=O)(=O)CC3)n(CCC(F)(F)F)n2)nc(-c2ccc(Cl)cc2)n1C[C@H](O)C(F)(F)F", 3800),
    ("CC1(C)CN(c2nc(Cn3nc(-c4ccc(Cl)cc4)n(C[C@H](O)C(F)(F)F)c3=O)nn2-c2ccccc2Cl)CCN1", 45),
    ("CC(N)(CNc1nc(Cn2nc(-c3ccc(Cl)cc3)n(C[C@H](O)C(F)(F)F)c2=O)nn1-c1ccccc1Cl)C(F)(F)F (mixture of isomers)", 1.28),
]

1 = O=c1n(Cc2nc(N3CCNC(C(F)(F)F)C3)n(-c3ccccc3Cl)n2)nc(-c2ccc(Cl)cc2)n1C[C@H](O)C(F)(F)F (mixture of isomers) [Example 66]
2 = CC1(CNc2nc(Cn3nc(-c4ccc(Cl)cc4)n(C[C@H](O)C(F)(F)F)c3=O)nn2-c2ccccc2Cl)COC1
Req: Hello, I am sorting some records. Could you say if 1 or 2 has the smaller IC50 value? Use the label to indicate which entry you chose.
Resp: 2

a = O=c1n(Cc2nc(N3CC(O)(C(F)(F)F)C3)n(-c3ccccc3Cl)n2)nc(-c2ccc(Cl)cc2)n1C[C@H](O)C(F)(F)F
b = O=c1n(Cc2nc(NCC3CS(=O)(=O)C3)n(-c3ccccc3Cl)n2)nc(-c2ccc(Cl)cc2)n1C[C@H](O)C(F)(F)F
c = CC(C)(C)OC(=O)N1CCC(O)(CNc2nc(Cn3nc(-c4ccc(Cl)cc4)n(C[C@H](O)C(F)(F)F)c3=O)nn2-c2ccccc2Cl)CC1
Req: Order field: IC50 | Direction: descending (largest first) Please express your ranking as an ordered list of the labels.
Resp: c, b, a

I = COCCNc1nc(Cn2nc(-c3ccc(Cl)cc3)n(C[C@H](O)C(F)(F)F)c2=O)nn1-c1ccccc1Cl
II = CC(C)(N)CNc1nc(Cn2nc(-c3ccc(Cl)cc3)n(C[C@H](O)C(F)(F)F)c2=O)nn1-c1ncccc1F
Req: Between the two listed entries I and II , which has its IC50 at the higher number? Use the label to indicate which entry you chose.
Resp: II
